- assay-target: MS2 coat protein, dlFG mutant (Escherichia phage MS2, UniProt P03612, del68-81insG)
- method: 4 mM Mg2+; no ligand; RNA-MaP array; 100 mM Tris-HCl pH 7.5, 80 mM KCl, 4 mM MgCl2, 0.1 mg/mL BSA, 1 mM DTT, 0.01 mg/mL yeast tRNA, 0.01% Tween-20; protein 1.5 nM to 3 uM; 37 C (Table S3)
- assay-context: chain copies: 2; label: tethered by stalled RNA polymerase
pKd: −log10 of the molar value.
Tick criterion met if pKd is 7 or greater. Tick criterion not met if pKd is less than 7.

For orientation, consider the following solved cases.
Eterna 7716236 (Same State - Tryptophan B) (ssRNA) RNA: GCGCGGCAGGCGGCCGCCACUCUGACGAGCCACAGUGAUGUUGUGGUCGGAGAAACGUCUUCAUAGAGGACCGGGUUUGUUGUUC | criterion not met
Eterna 7691696 (Same State - Theophylline B) (ssRNA) RNA: UGUCAUUGGUCUGAUACCAGAAGAUAAUCUGGAGUGAUGUUCCAAGUACGACAAAGUCGCUUCCCUUGGCAGCAGACCGAUGACU | criterion not met
Eterna 7712973 (Exclusion - Theophylline A) (ssRNA) RNA: AGACCUCAGUGAUGUUGAGGUAACACUGAUACCAGCGACUUAAUUCGCCCUUGGCAGCAGUCCACCGAGGUAUCUGAUUAGGUCA | criterion not met

[ask] Check if pKd >= 7 (inclusive). Item: Eterna 7637577 (Same State - Tryptophan B) (ssRNA) RNA: GUAGCUAUCGCGGCCGCCACUAAACCGGAAACGGAACAGGAGGAUCACCCUUGUGGCGAAAGCCAUAGGACCGGGCGAUAGCUAC
[reply] criterion not met
